targetEntity: CDK2/Cyclin A (Homo sapiens)
measurementNotes: CDK2/Cyclin A assay ([32P]ATP, Rb fragment)
Assay type: biochemical
conditionDetails: Table 3
assayMetric: pKi
# pKi is unitless: minus log10 of the molar concentration; print number only

Which pKi value belongs to C(=C\c1n[nH]c2cc(-c3ccncc3)ccc12)/c1ccccc1 ?
5.48

Which pKi value belongs to Clc1ccc(/C=C/c2n[nH]c3cc(-c4ccncc4)ccc23)cc1 ?
5.66

Which pKi value belongs to Fc1cccc(/C=C/c2n[nH]c3cc(-c4ccncc4)ccc23)c1 ?
5.85

Which pKi value belongs to Fc1ccccc1/C=C/c1n[nH]c2cc(-c3ccncc3)ccc12 ?
5.52

Which pKi value belongs to Cc1cccc(/C=C/c2n[nH]c3cc(-c4ccncc4)ccc23)c1 ?
5.52

###

targetEntity: LCK tyrosine kinase (Homo sapiens, UniProt P06239, C224D/P223M)
Construct: starting from amino acid residue 223 to the end of the protein at residue 509; made in house; host or cells: insect cells
Sequence (P06239 223-509 P223M/C224D): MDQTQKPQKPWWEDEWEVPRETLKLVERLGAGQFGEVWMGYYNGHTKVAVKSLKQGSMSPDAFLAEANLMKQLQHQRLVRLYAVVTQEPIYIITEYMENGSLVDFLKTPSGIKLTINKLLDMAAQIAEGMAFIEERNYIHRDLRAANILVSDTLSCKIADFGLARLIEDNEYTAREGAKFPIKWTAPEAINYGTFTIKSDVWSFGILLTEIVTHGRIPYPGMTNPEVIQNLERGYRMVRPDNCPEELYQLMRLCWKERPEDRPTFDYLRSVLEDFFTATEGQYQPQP
measurementNotes: LCK spectrophotometric assay
Type: biochemical
conditionDetails: Table 1; compound concentration 1 μM; read-out: Lck-P % inhibition
I'd appreciate it if you could supply inhibition at 1 µM values for the items below.
Just the number in %, nothing appended.

Which inhibition at 1 µM value belongs to O=C(c1cccc(NC(=O)c2ccno2)c1)c1ccc2c(/C=C/c3ccccc3)n[nH]c2c1 ?
36

Which inhibition at 1 µM value belongs to CCCn1nc(C)cc1C(=O)Nc1cc(C(=O)c2ccc3c(/C=C/c4ccccn4)n[nH]c3c2)ccc1C ?
18

Which inhibition at 1 µM value belongs to CCn1nc(C)cc1C(=O)Nc1cc(Oc2ccc3c(/C=C/c4ncc[nH]4)n[nH]c3c2)ccc1C ?
19

Which inhibition at 1 µM value belongs to O=C(Nc1cc(Nc2ccc3c(/C=C/c4ccccc4)n[nH]c3c2)ccc1F)c1ccccc1 ?
50

###

I'd appreciate it if you could supply log10 concentration at 7 h values for the items below.
measurementNotes: Determination of inhibitor concentration in mouse plasma after intraperitoneal and oral dosing
Assay type: in vivo
conditionDetails: female, PO, 50 mg/kg, vehicle PEG400:H2O pH 2.3 60:40, read-out: Cmin (7 hr conc.)
For clarity, the numbers are log10 values of concentration at 7 h expressed in ng/mL.

Which log10 concentration at 7 h value belongs to O=C(c1cccc(NC(=O)c2ccccn2)c1)c1ccc2c(/C=C/c3ccccc3)n[nH]c2c1 [Example 19(k)] ?
0.60

Which log10 concentration at 7 h value belongs to O=C(Nc1cccc(C(=O)c2ccc3c(/C=C/c4ccccn4)n[nH]c3c2)c1)c1ccncc1 [Example 41(b)] ?
0.78

Which log10 concentration at 7 h value belongs to C/C=C/C(=O)Nc1cccc(C(=O)c2ccc3c(/C=C/c4ccccn4)n[nH]c3c2)c1 [Example 41(c)] ?
2.02

Which log10 concentration at 7 h value belongs to O=C(Nc1cccc(C(=O)c2ccc3c(/C=C/c4ccccn4)n[nH]c3c2)c1)c1ccccc1 [Example 42(a)] ?
2.53

Which log10 concentration at 7 h value belongs to Cc1ccc2cc(NC(=O)c3ccccc3Sc3ccc4c(/C=C/c5ccccn5)n[nH]c4c3)ccc2n1 [Example 33(b)] ?
1.88

Which log10 concentration at 7 h value belongs to O=C(c1cccc(NC(=O)c2cccc3[nH]ccc23)c1)c1ccc2c(/C=C/c3ccccn3)n[nH]c2c1 [Example 41(d)] ?
2.18

Which log10 concentration at 7 h value belongs to O=C(Nc1cccc(Cl)c1)c1ccccc1Sc1ccc2c(/C=C/c3ccccn3)n[nH]c2c1 [Example 33(d)] ?
0.90
